# testedOn: Serine/threonine-protein kinase Chk1 (Homo sapiens)
# Sequence (O14757 whole entry): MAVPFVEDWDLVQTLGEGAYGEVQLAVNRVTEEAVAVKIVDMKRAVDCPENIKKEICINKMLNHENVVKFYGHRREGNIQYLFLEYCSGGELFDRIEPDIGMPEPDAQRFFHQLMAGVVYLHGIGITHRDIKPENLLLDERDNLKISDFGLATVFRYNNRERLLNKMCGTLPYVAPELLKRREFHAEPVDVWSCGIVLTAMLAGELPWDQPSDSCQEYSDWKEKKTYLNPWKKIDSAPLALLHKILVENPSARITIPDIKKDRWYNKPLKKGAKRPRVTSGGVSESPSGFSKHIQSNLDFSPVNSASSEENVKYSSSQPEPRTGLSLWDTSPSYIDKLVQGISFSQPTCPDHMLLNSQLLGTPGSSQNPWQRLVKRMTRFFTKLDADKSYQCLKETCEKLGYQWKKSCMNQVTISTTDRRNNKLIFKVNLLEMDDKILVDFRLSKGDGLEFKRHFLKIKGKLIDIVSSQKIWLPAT
Several publications report IC50 on Serine/threonine-protein kinase Chk1 (Homo sapiens); those values are gathered here.
Mark each entry yes (1) if its IC50 sits below 10 nM, and no (0) for all others.

Is IC50 strictly under 10 nM for the entry `CN(Cc1ccccc1)c1nc(C(=O)Nc2ccccc2N2CCNCC2)cs1` ? no (0)

Is IC50 strictly under 10 nM for the entry `COc1ccc(-c2cc3c([nH]2)C(=O)NCC/C3=C2/NC(N)=NC2=O)cc1` ? no (0)

Is IC50 strictly under 10 nM for the entry CCN1CCCC(Oc2cc3c(cc2OC)Cc2c-3n[nH]c2-c2ccc(-c3ccc(O)cc3)cc2)C1 (stereo not given) ? yes (1)

Is IC50 strictly under 10 nM for the entry `NC(=O)c1cnc(N[C@H]2CCCNC2)c2cc(-c3ccc(C(F)(F)F)cc3)sc12` ? yes (1)

Is IC50 strictly under 10 nM for the entry `CC(C)(C)C(=O)N1Cc2c(NC(=O)c3cc(F)cc(F)c3)n[nH]c2C1(C)C` ? no (0)

Is IC50 strictly under 10 nM for the entry `COc1cc2ncnc(Nc3cccc(Cl)c3F)c2cc1CN(C)[C@H](C)C(N)=O` ? no (0)

Is IC50 strictly under 10 nM for the entry `O=c1[nH]c2ccc(-n3ccnn3)cc2cc1-c1cc2cc(CN3CCCCC3)ccc2[nH]1` ? yes (1)

Is IC50 strictly under 10 nM for the entry `NCCCc1cc2c(-c3ccc(F)cc3)c[nH]c(=O)c2c2cc(-c3cn[nH]c3)ccc12` ? yes (1)

Is IC50 strictly under 10 nM for the entry `COc1ccc2c(c1)C(=O)N(c1nc(C(=O)Nc3cc(F)ccc3N3CCNCC3)cs1)C2` ? yes (1)

Is IC50 strictly under 10 nM for the entry `OCC#Cc1cncc(-c2cnc(Nc3cc(N4CCOCC4)ccn3)s2)c1` ? yes (1)

Is IC50 strictly under 10 nM for the entry `CCN(CC)CC(CN(CC)CC)Oc1cc2c(cc1OC)Cc1c(-c3ccc(-c4ccc(O)cc4)cc3)n[nH]c1-2` ? yes (1)

Is IC50 strictly under 10 nM for the entry `Cc1cn2c(-c3cn[nH]c3)cnc2c(Nc2cc(Cc3ccccn3)ns2)n1` ? no (0)

Is IC50 strictly under 10 nM for the entry `Cc1ncc(-c2cnc(Nc3cc(N4CCNCC4)ccn3)s2)cn1` ? no (0)

Is IC50 strictly under 10 nM for the entry `Cn1c2c(c3sccc31)/C(=C1\NC(N)=NC1=O)CCNC2=O` ? no (0)

Is IC50 strictly under 10 nM for the entry O=c1[nH]c2ccsc2c(NC2CCCNC2)c1-c1nc2ccccc2[nH]1 (stereo not given) ? yes (1)

Is IC50 strictly under 10 nM for the entry `CNc1nc(Nc2cnc(C#N)c(OCC3CCNCC3)c2)ncc1C(F)(F)F` ? no (0)

Is IC50 strictly under 10 nM for the entry `N#Cc1cccc2[nH]c(=O)c(-c3cc4cc(CN5CCC(CN)CC5)ccc4[nH]3)cc12` ? no (0)

Is IC50 strictly under 10 nM for the entry `CNc1nc(Nc2cnc(C#N)c(N[C@@H]3CCCNC3)c2)ncc1C(F)(F)F` ? no (0)

Is IC50 strictly under 10 nM for the entry `NC(=O)c1cnc(N(CCc2ccccc2)[C@H]2CCCNC2)c2cc(-c3ccccc3)sc12` ? no (0)

Is IC50 strictly under 10 nM for the entry `Brc1cncc(-c2cnc(Nc3cc(N4CCNCC4)ccn3)s2)c1` ? no (0)
